The reader will find reported pIC50 values listed item by item below.
# experimentalTarget: UniProtKB Q8IW41
# Sequence (Q8IW41 1-471 isoform Q8IW41-2): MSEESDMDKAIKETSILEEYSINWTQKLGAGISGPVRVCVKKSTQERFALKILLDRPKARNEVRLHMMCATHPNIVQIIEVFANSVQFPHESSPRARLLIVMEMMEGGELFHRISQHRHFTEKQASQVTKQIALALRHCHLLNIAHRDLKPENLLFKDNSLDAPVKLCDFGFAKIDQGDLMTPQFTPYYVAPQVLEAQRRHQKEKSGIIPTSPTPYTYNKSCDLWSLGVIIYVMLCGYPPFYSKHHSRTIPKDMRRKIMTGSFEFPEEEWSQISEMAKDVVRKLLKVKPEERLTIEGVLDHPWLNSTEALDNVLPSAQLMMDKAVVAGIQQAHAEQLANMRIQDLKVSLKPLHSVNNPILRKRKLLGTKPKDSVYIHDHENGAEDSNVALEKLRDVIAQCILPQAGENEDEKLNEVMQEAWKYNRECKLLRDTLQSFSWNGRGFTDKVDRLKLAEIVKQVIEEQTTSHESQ
pIC50: −log10 of the molar value.

Recorded results for 2 molecules are shown here.
- recordSmiles: "NC(=O)c1cc(-c2cnc(NC3CCC3)c3nccn23)co1"
  experimentalTarget: "UniProtKB Q8IW41"
  testResult: "6.30 to 7.00"
- recordSmiles: "O=C1NCc2cc(-c3cnc(NC4CC4)c4ncnn34)ccc21"
  experimentalTarget: "UniProtKB Q8IW41"
  testResult: "6.30 to 7.00"

As a next step, examine the molecule that follows.
Per the records, this molecule ( CC(C)(C)OC(=O)N1CCC(Nc2ncc(-c3ccc4c(c3)CNC4=O)n3ncnc23)CC1 ) has pIC50 equal to 6.00 to 6.30
